READOUT_NAME: melting point

Would you be so kind as to report melting point for each listed record?
1. CCCCCCCCCCCCCC1OC(=O)/C1=C\CCCCCS(N)(=O)=O (centres unmarked)
2. CCCCCCCCCCCCCC1OC(=O)C1CCCCCC(N)=O (mixture of isomers)
3. NC(=O)CCCC/C=C1\C(=O)OC1CCCCCCCCCc1ccccc1 (centres unmarked)

[reply]
1. 79 to 80 °C
2. 98 to 101 °C
3. 93 to 94 °C

Would you be so kind as to report melting point for each listed record?
1. CCCCCCCCCCCCCC1OC(=O)/C1=C\CCCCc1ccccc1 (centres unmarked)
2. CCCCCCCCCCCCCC1OC(=O)/C1=C\c1ccccc1 (centres unmarked) [Compound 3, (Z)-3-benzylidene-4-tridecyloxetan-2-one]

[reply]
1: 34 to 35 °C; 2: 61 to 62 °C

Numbers sourced from patent US20170313669A1.
